test system: SF-295; test: NCI tumour cell line growth inhibition, 48 h
Calls of active or inactive are those of the source. Cut-off read from the data, not from the text of the source: active = GI50 up to about 1.1 µM and inactive = higher.
endpoint name: GI50

Asked: // lookup GI50 for `O=C1Nc2ccccc2[C@]12C[C@H]2c1ccccn1`
Given back: > 100 µM (inactive)

Asked: And CC(=O)O[C@H]1C(=O)[C@@]2(C)C(C(OC(=O)c3ccccc3)[C@]3(O)CC(OC(=O)C(O)C(NC(=O)c4ccccc4)c4ccc(F)cc4)C(C)=C1C3(C)C)[C@]1(OC(C)=O)CO[C@@H]1C[C@@H]2O (stereo not given in full) ?
Given back: 0.00401 µM (active)

Asked: And COC(=O)C(NC(=O)c1ccccc1)C(c1c(O)cc(O)cc1O)P(=O)(OC)OC (stereo not given) ?
Given back: > 100 µM (inactive)

Asked: And COc1cc(NC(C)CCCN)c2nccc(C)c2c1 (stereo not given) ?
Given back: 15.3 µM (inactive)

Asked: And `O=C1C(c2ccccc2)=[N+]([O-])c2ccccc21` ?
Given back: 17.4 µM (inactive)

---

tested on: HOP-62; assay: NCI tumour cell line growth inhibition, 48 h
Activity calls are given as the source filed them. Rule as the data show it: active = GI50 up to about 1.1 µM and inactive = higher.
endpoint name: GI50

Asked: // lookup GI50 for `COc1ccc(C(=O)Nc2ccccc2C#N)cc1`
Given back: > 100 µM (inactive)

Asked: And Cn1c(=O)oc2cc(C(O)CN3CCN(Cc4ccccn4)CC3)c(Cl)cc21 (stereo not drawn) ?
Given back: > 100 µM (inactive)

Asked: And `O=C1Nc2ccccc2[C@]12C[C@H]2c1ccccn1` ?
Given back: > 100 µM (inactive)

Asked: And CCOC(=O)N1c2ccccc2C(C)=CC(C)C1C (stereo not drawn) ?
Given back: 37.6 µM (inactive)

Asked: And CC1CCC2(NC1)OC1CC3C4CC=C5CC(OC6OC(CO)C(OC7OC(C)C(O)C(O)C7O)C(O)C6OC6OC(C)C(O)C(O)C6O)CCC5(C)C4CCC3(C)C1C2C (stereo not drawn) ?
Given back: 4.09 µM (inactive)

Asked: And NC(=O)NC(CC(=O)O)C(=O)O (stereo not drawn) ?
Given back: > 100 µM (inactive)

Asked: And C=CC1CN(C(=O)OCC)N(C(=O)OCC)C1CCc1ccccc1 (stereo not drawn) ?
Given back: > 100 µM (inactive)

Asked: And `Nc1ccn(CCO)c(=O)n1` ?
Given back: > 100 µM (inactive)

Asked: And `O=[N+]([O-])c1ccc2c3c1[C@H]1O[C@H]1c1cccc(c1-3)[C@@H]1O[C@H]21` ?
Given back: 2.9 µM (inactive)

Asked: And `CCc1c(-c2ccc(OC)cc2)c(=O)oc2cc(O)ccc12` ?
Given back: 54 µM (inactive)

Asked: And CC(SC(=S)Nc1cccc(F)c1)C(=O)O (stereo not drawn) ?
Given back: 18.3 µM (inactive)

Asked: And `O=c1[nH]c2nccn2c(Cl)c1Br` ?
Given back: > 100 µM (inactive)

Asked: And `O/N=C(\c1ccccc1)N1CCCCC1` ?
Given back: 92.3 µM (inactive)

Asked: And `CN(C)/C=N/S(=O)(=O)c1nn2c(C=O)c(-c3ccc(-c4ccccc4)cc3)nc2s1` ?
Given back: 8.61 µM (inactive)

Asked: And `Cc1ccc(C(=O)N/N=C(\N=N\c2ccc(C(=O)O)cc2)c2ccc(N(CCC#N)CCC#N)cc2C)cc1` ?
Given back: > 100 µM (inactive)

Asked: And CC(C)CC(=O)NC(C(=O)NC(C(=O)NC(CC(C)C)C(O)CC(=O)NC(C)C(=O)NC(CC(C)C)C(O)CC(=O)O)C(C)C)C(C)C (stereo not drawn) ?
Given back: > 100 µM (inactive)

Asked: And `O=C1CCSc2nc(-c3ccc4c(c3)OCO4)nn21` ?
Given back: > 10 µM (inactive)

Asked: And `OCCSCC/C(=N\N=C(/CCSCCO)c1ccccc1)c1ccccc1` ?
Given back: > 100 µM (inactive)

Asked: And `Cc1cc2c(O)nc(N)nc2nc1C` ?
Given back: > 100 µM (inactive)

Asked: And `O=C1C/C(Br)=C\c2ccccc2-c2ccccc21` ?
Given back: 3.05 µM (inactive)

Asked: And OC(CCN1CCN(CCOC(c2ccccc2)c2ccccc2)CC1)c1ccc(Br)cc1 (stereo not drawn) ?
Given back: 15.1 µM (inactive)

Asked: And `CC(/C=N/N=C1NCCCCN1)=N\N=C1NCCCCN1` ?
Given back: > 100 µM (inactive)

Asked: And CC(C)(C)[Si](C)(C)OCCC1CC2(S(=O)(=O)C3=CC=C=C=C3)ON1CC2S(=O)(=O)c1ccccc1 (stereo not drawn) ?
Given back: > 10 µM (inactive)

---

system: BT-549; experiment: NCI tumour cell line growth inhibition, 48 h
The source made the active and inactive calls. No stated cut-off is given here; in the data, active = GI50 up to about 1.1 µM and inactive = higher.
Task for the reader: assign each of the following compounds its reported GI50.

Asked: // lookup GI50 for COc1ccc2c(c1)CCN1CCCc3ccc(OC)cc3C21 (configuration not stated)
Given back: 34 µM (inactive)

Asked: And CCCCCCCCCCCCCCCCCCOP(=O)([O-])OCC[N+](C)(C)C [OCTADECYLPHOSPHONOCHOLINE] ?
Given back: 1.22 µM (inactive)

Asked: And `c1cc(-c2ccc(Oc3ccc(-c4ccncc4)cc3)cc2)ccn1` ?
Given back: 5.07 µM (inactive)

Asked: And COc1ccc(N(C(=O)Nc2ccc(Cl)c(Cl)c2)C2c3cccn3C(=O)N2c2ccc(Cl)c(Cl)c2)cc1 (configuration not stated) ?
Given back: > 100 µM (inactive)

Asked: And C=CCCCCCCCCCOC1C=CC(OC(C)=O)C(COC(C)=O)O1 (configuration not stated) ?
Given back: 66.4 µM (inactive)

Asked: And `COC(=O)CCC(=O)NC1=C(Nc2ccc(OC)cc2)C(=O)c2ccccc2C1=O` ?
Given back: 15.4 µM (inactive)

Asked: And CSC1=C(C#N)C(=O)N(c2ccc(Cl)cc2)C(=O)C1C#N (configuration not stated) ?
Given back: > 100 µM (inactive)

---

tested on: RPMI-8226; experiment: NCI tumour cell line growth inhibition, 48 h
Active and inactive are the calls of the source. Rule as the data show it: active = GI50 up to about 1.1 µM and inactive = higher.
Write down the outcome that applies. Available outcomes: Yes (active), No (inactive)

Asked: I'd appreciate the recorded outcome for COC(=O)C1=C(O)C(C(=O)OC)[C@]2(O)[C@H](C(=O)OC)[C@H]1C[C@@H](c1c(Cl)cccc1Cl)[C@H]2C(=O)OC (stereo partly specified) from this test.
Given back: No

Asked: And `O=C(O)c1ccccc1CC1Cc2cc3c(cc2C1)CCC3` ?
Given back: No

Asked: And `Cn1c(=O)c2c(nc3sc4ccccc4c(=O)n32)n(C)c1=O` ?
Given back: No

Asked: And C#CCNC(=O)NCCCC(NC(C)=O)C(=O)NCc1ccccc1 (stereo unspecified) ?
Given back: No

Asked: And `Cn1c2ccccc2c2cc(-c3ccccc3)c3c(c21)C(=O)C=CC3=O` ?
Given back: No

Asked: And COc1cc(C(C)c2cc3c(cc2OCCN)OCO3)cc(OC)c1OC (stereo unspecified) ?
Given back: No

Asked: And `COc1cc2oc(=O)cc(C)c2c(OC)c1O` ?
Given back: No

Asked: And `NC1CCCCC1.O=C(O)C(CP(=O)(O)O)=C(Cl)Cl` ?
Given back: No

Asked: And `COc1ccccc1C(=O)NO` ?
Given back: No

Asked: And `CN(C)CCNC(=O)c1cccc2c(Nc3ccc(S(N)(=O)=O)cc3)c3ccccc3nc12` ?
Given back: No

Asked: And C/C=C/C(O)P(=O)(OC)OC (stereo unspecified) ?
Given back: Yes

---

test system: SW-620; assay: NCI tumour cell line growth inhibition, 48 h
Activity calls are given as the source filed them. No stated cut-off is given here; in the data, active = GI50 up to about 1.1 µM and inactive = higher. Where a SMILES comes first, the peptide text is derived from it. The star is where a group is joined. Boc = CC(C)(C)OC(=O)*; OBn = c1ccc(CO*)cc1
Write down the outcome that applies. Available outcomes: Yes for active, No for inactive

Asked: I'd appreciate the recorded outcome for CCC(C)(O)c1cn(-c2ccc(S(=O)(=O)O)cc2)nn1 (stereo not given) from this test.
Given back: No

Asked: And Cc1ccc(N2C(=O)C3c4[nH]c5ccccc5c4C4CCC(C(C)(C)C)CC4C3C2=O)cc1 (stereo not given) ?
Given back: No

Asked: And `C=C(C(N)=O)c1ccc([N+](=O)[O-])o1` ?
Given back: No

Asked: And CCOC(=O)CCC(NC(=O)Cc1ccc(Oc2nc3ccccc3nc2-c2ccccc2)cc1)C(=O)OCC (stereo not given) ?
Given back: No

Asked: And `CCOC(=O)C#Cc1cccc(C#CC(=O)OCC)c1` ?
Given back: No

Asked: And `CCNC(=O)/C(=C/c1ccc(OC)cc1)c1cc(OC)c(OC)c(OC)c1` ?
Given back: No

Asked: And `CN(C)CCNC(=O)c1cccc2c(Nc3ccc(S(N)(=O)=O)cc3)c3ccccc3nc12` ?
Given back: Yes

Asked: And `CO[C@H]1O[C@@H]2CO[C@@H](c3ccccc3)O[C@H]2[C@@H]2CC=CCC[C@]12O` ?
Given back: No

Asked: And O=S(=O)(c1ccccc1)n1c(C(O)c2ccncc2)cc2ccccc21 (stereo not given) ?
Given back: No

Asked: And C/C(=N/NC(N)=S)C(CN(C)C)C(C1=C(O)c2ccccc2OC1)c1ccccc1 (stereo not given) ?
Given back: No

Asked: And `CNC(=O)OCc1c(COC(=O)NC)c(C)n(-c2ccc(Br)cc2)c1C` ?
Given back: No

Asked: And `N#Cc1c(Cl)c2ccccc2n2c1nc1ccccc12` ?
Given back: No

Asked: And `Cn1c2ccccc2c2cc(-c3ccccc3)c3c(c21)C(=O)C=CC3=O` ?
Given back: No

Asked: And `N#C/C(=C/NC(N)=S)C(N)=O` ?
Given back: No

Asked: And `O=C(O)CCc1c2ccc(=O)c(O)c-2oc2c(O)c(O)ccc12` ?
Given back: No

Asked: And `COc1cccc(-c2cc(O)c3cc(NC(C)=O)ccc3n2)c1` ?
Given back: No

Asked: And `O=C(Nc1nc2ncn(CCO)c2c(=S)[nH]1)c1ccccc1` ?
Given back: No

Asked: And CCCC(=O)Nc1ccc(O)c2c1C1CCCCCC21 (stereo not given) ?
Given back: No

Asked: And Cn1c(=O)oc2cc(C(O)CN3CCN(Cc4ccccn4)CC3)c(Cl)cc21 (stereo not given) ?
Given back: No

Asked: And `O=C(CCC(=O)Nc1ccc(Cl)cc1)CC(=O)c1ccc2ccccc2c1` ?
Given back: No

Asked: And `c1ccc([P+](Cc2ccccc2C[P+](c2ccccc2)(c2ccccc2)c2ccccc2)(c2ccccc2)c2ccccc2)cc1` ?
Given back: No

Asked: And `O=C1C=CC(=O)C(CNc2ccc(C(=O)OC34CC5CC(CC(C5)C3)C4)cc2)=C1Br` ?
Given back: No

Asked: And CN(CCN1CCCC1)C1CCc2cc(Cl)c(Cl)cc2C1 (stereo not given) ?
Given back: No

Asked: And COC(=O)C1=C(OC)C(=P2(c3ccccc3)CC(c3ccccc3)=C2c2ccccc2)C(C(=O)OC)=C1C(=O)OC (stereo not given) ?
Given back: No

Asked: And CC(C)CC(NC(=O)OC(C)(C)C)C(=O)N1CCCC1C(=O)OCc1ccccc1 (stereo not drawn) (Boc-Leu-Pro-OBn; configuration not given here) ?
Given back: No

Asked: And `CC(=O)OC(Cc1cc(C=C(C(F)(F)F)C(F)(F)F)cc(C)n1)(C(F)(F)F)C(F)(F)F` ?
Given back: No

Asked: And `C=C1C[C@@H]2O[C@H]3[C@H]4[C@@H](C[C@@H](C)[C@@H](OC(C)=O)[C@H]42)[C@@H](C)CO[C@@]3(C)[C@H](OC(C)=O)C[C@H]1O` ?
Given back: No

Asked: And `O=C1Cc2c(-c3ccccc3)cc(-c3ccc4ccccc4c3)nc2-c2ccccc2N1` ?
Given back: No

Asked: And `CC#COP(=O)(OCC)OCC` ?
Given back: No

Asked: And `O=C1C=C(O)C(=Cc2c(O)cc(O)cc2O)C(O)=C1` ?
Given back: No

Asked: And `O=c1c2ccccc2nc(Nc2cccc(Cl)c2)n1/N=C/C=C/c1ccccc1` ?
Given back: No

Asked: And `CCCCCCCCCc1cc(=O)c2c(O)cc(O)cc2o1` ?
Given back: No

Asked: And `Cc1nnc2n1N=C(CC(=O)c1ccc(O)cc1O)CN2N` ?
Given back: No

Asked: And `Fc1cccc2c1cc1ccc3cccc4ccc2c1c34` ?
Given back: No

Asked: And C/C=C/C(O)P(=O)(OC)OC (stereo not given) ?
Given back: Yes

The reported measurements were obtained from ChEMBL document CHEMBL1201862.
